Each recorded value in this set is attributed to the supplement of paper PMC10065799.

- Target: Fyn (UniProt P06241)
- Sequence (P06241 whole entry, looked up): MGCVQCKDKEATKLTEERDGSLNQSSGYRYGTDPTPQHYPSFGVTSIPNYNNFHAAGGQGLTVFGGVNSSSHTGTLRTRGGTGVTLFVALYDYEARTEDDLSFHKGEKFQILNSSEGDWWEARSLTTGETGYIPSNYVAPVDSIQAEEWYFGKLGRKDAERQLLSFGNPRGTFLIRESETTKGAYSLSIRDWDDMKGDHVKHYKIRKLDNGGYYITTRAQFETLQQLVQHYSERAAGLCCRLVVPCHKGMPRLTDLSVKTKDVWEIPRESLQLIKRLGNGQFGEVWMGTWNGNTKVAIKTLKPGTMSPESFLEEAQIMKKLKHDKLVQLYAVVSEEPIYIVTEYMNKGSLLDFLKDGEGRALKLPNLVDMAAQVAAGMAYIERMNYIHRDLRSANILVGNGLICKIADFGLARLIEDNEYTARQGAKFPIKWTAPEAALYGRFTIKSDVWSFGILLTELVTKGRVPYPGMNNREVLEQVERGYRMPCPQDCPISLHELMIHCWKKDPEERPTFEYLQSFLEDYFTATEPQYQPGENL
- Protocol: phosphorylation enrichment, bacterial display (enrichment ratio); higher = better substrate or ligand; peptides without Tyr show the background
Below is a list of entries, each paired with its recorded phosphorylation enrichment value.
Answer field: number only, no words.

CTHDLYMIMRE [FGFR3_Y724] : 0.564

So what's the measured phosphorylation enrichment for this one? HNVAIYEGYAL [ACTC1_Y168_P166A] 15.4

I am curious: what phosphorylation enrichment value has been reported for KILTHYKQPHT [KMT2D_Y5349_R5351Q] ? 0.478

What measured phosphorylation enrichment goes with LEQDEYALRSH [HADHB_Y244] ? 0.793

Query: phosphorylation enrichment; subject: FRARAYGFRGP [CHGA_Y381] 0.676

Fill in: phosphorylation enrichment of QRTMKYTTATE [MCCC1_Y41_G46E] is ___ 0.781

Query: phosphorylation enrichment; subject: GDYYRYLAEVA [YWHAG_Y133] 1.39

Which value of phosphorylation enrichment has been reported for KYRREYILSLE [GPC3_Y299_W296R] in the records? 0.468

Tell me the measured phosphorylation enrichment of SVTYTYSPALN [TP53_Y126_C124Y] , please. 0.967

# get_value(readout='phosphorylation enrichment', item= INASGYRIGPA [ACSM1_Y477] ) 0.328

Request the reported phosphorylation enrichment associated with ALTDNYMFLVI [HAGH_Y61_YF] 0.615

Which measured phosphorylation enrichment value corresponds to KHCEDYVCSYN [DSC1_Y846] ? 0.502

* * *

- Target: Jak2 (UniProt O60674)
- Sequence (O60674 whole entry, looked up): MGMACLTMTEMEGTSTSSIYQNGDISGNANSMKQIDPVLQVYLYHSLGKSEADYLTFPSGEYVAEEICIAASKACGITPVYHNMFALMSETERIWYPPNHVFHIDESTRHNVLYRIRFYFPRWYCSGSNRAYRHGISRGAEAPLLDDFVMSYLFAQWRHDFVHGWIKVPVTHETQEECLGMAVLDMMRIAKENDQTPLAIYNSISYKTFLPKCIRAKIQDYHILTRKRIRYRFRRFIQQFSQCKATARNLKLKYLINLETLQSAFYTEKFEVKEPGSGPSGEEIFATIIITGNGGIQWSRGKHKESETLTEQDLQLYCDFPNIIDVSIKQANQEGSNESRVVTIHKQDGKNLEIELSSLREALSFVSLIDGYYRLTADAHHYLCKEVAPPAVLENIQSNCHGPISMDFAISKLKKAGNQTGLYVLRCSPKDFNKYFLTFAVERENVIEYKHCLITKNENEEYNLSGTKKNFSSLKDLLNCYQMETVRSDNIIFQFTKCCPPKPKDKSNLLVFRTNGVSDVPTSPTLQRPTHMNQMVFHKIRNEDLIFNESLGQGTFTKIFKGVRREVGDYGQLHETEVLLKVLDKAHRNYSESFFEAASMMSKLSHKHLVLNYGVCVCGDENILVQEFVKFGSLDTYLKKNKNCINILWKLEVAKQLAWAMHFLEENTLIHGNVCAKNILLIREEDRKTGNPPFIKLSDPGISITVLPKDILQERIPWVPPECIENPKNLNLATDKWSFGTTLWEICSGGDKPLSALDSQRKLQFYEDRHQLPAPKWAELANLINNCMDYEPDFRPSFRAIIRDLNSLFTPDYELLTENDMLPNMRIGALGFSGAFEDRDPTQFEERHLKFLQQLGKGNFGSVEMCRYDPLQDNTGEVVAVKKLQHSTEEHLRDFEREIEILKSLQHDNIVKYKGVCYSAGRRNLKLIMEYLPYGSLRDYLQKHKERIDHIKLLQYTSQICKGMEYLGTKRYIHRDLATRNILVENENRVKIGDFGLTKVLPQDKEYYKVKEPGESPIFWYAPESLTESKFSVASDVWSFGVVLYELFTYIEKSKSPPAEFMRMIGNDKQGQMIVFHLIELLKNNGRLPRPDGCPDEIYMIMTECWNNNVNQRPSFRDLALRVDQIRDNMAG
- Protocol: phosphorylation enrichment, bacterial display (enrichment ratio); higher = better substrate or ligand; peptides without Tyr show the background
Mark condition met for reported phosphorylation enrichment of 0.8 or greater; mark condition not met for anything smaller.

Here's what some known entries look like.
KFMVGYEMLAQ [GALT_Y339] : condition met
RLEGVYRNNID [PTEN_Y46] : condition not met
HDRNTYEKYLG [TF_Y666] : condition not met
TYGVVYRAKDK [CDK11B_Y453] : condition not met
ILGRTYYVNHE [NEDD4_Y627] : condition not met

Then this sequence:
Can DFPGNYSGFDD [POLR1C_Y33_YF] be said to have phosphorylation enrichment at or above 0.8? condition not met

* * *

- Target: Grb2 SH2 (UniProt P62993)
- Sequence (P62993 whole entry, looked up): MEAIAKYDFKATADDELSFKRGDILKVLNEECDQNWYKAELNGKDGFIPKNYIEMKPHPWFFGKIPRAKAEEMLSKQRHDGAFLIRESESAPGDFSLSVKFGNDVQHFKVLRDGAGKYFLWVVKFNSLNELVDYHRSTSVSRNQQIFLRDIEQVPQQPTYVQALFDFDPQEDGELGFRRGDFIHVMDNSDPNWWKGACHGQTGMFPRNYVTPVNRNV
- Protocol: SH2 binding enrichment of the phosphorylated peptide, bacterial display (enrichment ratio); higher = better substrate or ligand; peptides without Tyr show the background
# binarize SH2 binding enrichment: threshold 0.8 inclusive, high side True, low side False

ETLLFYGFRRS [POR_Y564_C566Y_YF] : False

Hello, I need to know if ETDPRYFDEEF [AKT1_Y437_T435P] has measured SH2 binding enrichment not below 0.8. Thanks! True

Could you verify whether the entry VFDMLYQVANL [USP24_Y1087_L1089V] shows SH2 binding enrichment of no less than 0.8? True

Hi, just wondering whether FLRTGYSIPFG [TGM1_Y370_V372I_YF] shows SH2 binding enrichment of 0.8 or higher. True

Dear colleague, could you confirm whether LASLIYNFILF [AQP6_Y231_V234I] has SH2 binding enrichment at or above 0.8? True

Can FGSLLYKYAFK [FANCD2_Y458] be said to have SH2 binding enrichment at or above 0.8? True

Can FPPTHYIRRVP [SLC4A11_Y820_YF] be said to have SH2 binding enrichment at or above 0.8? False

Please tell me: is the sequence RVEDAYILTCN [CCT6A_Y229] at or over 0.8 in terms of SH2 binding enrichment? False

Item QKINKYLTVPA [SLC9A1_Y683_N682K] with SH2 binding enrichment of 0.8 or above? True

Given KPMDTYFDSTR [DYNC2H1_Y2230_YF] , state whether its SH2 binding enrichment is at least 0.8. True

Check if SH2 binding enrichment >= 0.8 (inclusive). Item: TYGVVYRAKDK [CDK11B_Y453] True

Has KIIRRYVSSEG [ANK2_Y3907] a recorded SH2 binding enrichment greater than or equal to 0.8? False

SH2 binding enrichment >= 0.8 for DNAFQYMLTDR [MYH7_Y164_YF] ? True

# check: SH2 binding enrichment of GNKENYGLPQP [BUB1_Y538] is greater than or equal to 0.8 False

Could you tell me if the measured SH2 binding enrichment of AKLVQYYMEHH [PTPN11_Y80_E76K] reaches 0.8 or more? True

Say whether KLKRSYSSRDI [USP8_Y717_P720R] shows SH2 binding enrichment of 0.8 or more. True

I'd appreciate it if you could say whether KFEDVYVGICL [B3GALNT1_Y269] has SH2 binding enrichment at least equal to 0.8. False

Could you tell me if the measured SH2 binding enrichment of HPWPRYTTRAP [FNDC1_Y1281_Q1280R] reaches 0.8 or more? False

Test whether the sequence SHNELYYEEAE [VANGL1_Y344] records SH2 binding enrichment of 0.8 or higher. True

Threshold query (SH2 binding enrichment >= 0.8) on KKCTRYIDCAL [ASPA_Y64_D68A] True
